System: Brain
Experiment: Biodistribution in normal ddY mouse brain at 3.7 MBq, iv after 30 mins
Type: ADME, organism-based
Settings: in vivo, 0.5 h
PROPERTY_LABEL: Drug uptake (% ID/g)

These recorded examples may help you get a feel for the data.
# STRUCTURE_NOTATION, Drug uptake, % ID/g
records = [
    ("CN([11CH3])c1ccc(/C=C/C(=O)c2ccc(F)cc2)cc1", 1.04),
    ("CN([11CH3])c1ccc(/C=C/C(=O)c2ccc(OCCOCCF)cc2)cc1", 1.14),
]

I: CN([11CH3])c1ccc(/C=C/C(=O)c2ccc(OCCF)cc2)cc1
II: CN(C)c1ccc(/C=C/C(=O)c2ccc(OCCOCCOCC[18F])cc2)cc1
Request: Looking at I and II , which one comes out lower in Drug uptake terms? Please indicate the selected item by its label.
Response: II

----------
Test: Binding affinity to amyloid beta (1 to 42) peptide
PROPERTY_LABEL: Ki (nM)
Lab book: enter the figure in nM, no units written.

Request: Need Ki, item CNc1ccc(/C=C/c2ccc(OCCOCCOCC[18F])cc2)cc1 [FLORBETABEN F18]
Response: 6.7
